All values here come from patent US20230293517A1.

- measurement.target: human Adenosine A1 receptor (Homo sapiens (Human), UniProt P30542)
- Sequence (P30542 whole entry): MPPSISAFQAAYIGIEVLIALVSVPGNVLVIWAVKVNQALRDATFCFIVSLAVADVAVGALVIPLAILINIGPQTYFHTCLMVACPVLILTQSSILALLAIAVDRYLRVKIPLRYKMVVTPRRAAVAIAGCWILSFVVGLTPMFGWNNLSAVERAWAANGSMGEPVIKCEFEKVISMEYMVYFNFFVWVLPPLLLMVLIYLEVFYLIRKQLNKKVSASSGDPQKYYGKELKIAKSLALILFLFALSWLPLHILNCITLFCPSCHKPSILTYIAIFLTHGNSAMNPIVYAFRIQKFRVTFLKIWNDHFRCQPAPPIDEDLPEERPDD
- protocol.summary: Adenosine receptor TR-FRET binding assay (A1)
- test.conditions: inhibition of binding of 100 nM CA200645, CHO cell membranes
metric: Ki (µM)

Below are worked cases with known answers.
1) N#Cc1cccc(-c2nc(NC(=O)N3CC4(COC4)C3)sc2-c2cc(Cl)nc(Cl)c2)c1 = 0.043
2) Cc1cc(-c2sc(NC(=O)N3CCC[C@@H]3C(C)(C)O)nc2-c2cccc(C#N)c2)cc(Cl)n1 = 1

[1] Cc1cc(-c2sc(NC(=O)N3CCNCC3C3CC3)nc2-c2cccc(C#N)c2)cc(C)n1 (stereo not shown)
[2] Cc1cc(-c2sc(NC(=O)N3CCN[C@H](C(C)(C)O)C3)nc2-c2cccc(C#N)c2)cc(C)n1
[in] Please tell me which of the two, 1 or 2 , has the higher reported Ki value. Refer to your chosen item by its label in the answer.
[out] 2
(2: 0.099 µM, 1: 0.058 µM)

[a] COc1cc(-c2sc(NC(=O)N3CC[S+]([O-])CC3)nc2-c2cccc(C#N)c2)cc(C)n1
[b] Cc1cc(-c2sc(NC(=O)N3[C@H](C)CNC[C@H]3C)nc2-c2cccc(C#N)c2)cc(C)n1
[in] Please tell me which of the two, a or b , has the higher reported Ki value. Refer to your chosen item by its label in the answer.
[out] b

----------
- measurement.target: human Adenosine A2b receptor (Homo sapiens (Human), UniProt P29275)
- Sequence (P29275 whole entry): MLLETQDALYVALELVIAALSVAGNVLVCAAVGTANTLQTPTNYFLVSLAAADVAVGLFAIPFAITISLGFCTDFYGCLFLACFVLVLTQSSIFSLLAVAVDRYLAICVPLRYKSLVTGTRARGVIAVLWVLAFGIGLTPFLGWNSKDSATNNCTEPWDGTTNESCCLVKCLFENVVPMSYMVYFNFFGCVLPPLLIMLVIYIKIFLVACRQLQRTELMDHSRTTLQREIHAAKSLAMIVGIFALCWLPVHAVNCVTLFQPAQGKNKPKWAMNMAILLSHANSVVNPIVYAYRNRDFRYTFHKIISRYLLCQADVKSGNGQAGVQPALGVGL
- protocol.summary: Adenosine receptor TR-FRET binding assay (A2b)
- test.conditions: TR-FRET, inhibition of binding of 30 nM CA200645, CHO cell membranes
pKi: −log10 of the molar value.
metric: pKi

1) Cc1cc(-c2sc(NC(=O)N3CC4(COC4)C3)nc2-c2cccc(C#N)c2)cc(CO)n1 = 8.28

[1] Cc1cc(-c2sc(NC(=O)N3CC4(COC4)C3)nc2-c2cccc(C#N)c2)cc(C)n1
[2] Cc1cc(-c2sc(NC(=O)N3CCC(C)(C#N)CC3)nc2-c2cccc(C#N)c2)cc(CO)n1
[3] Cc1cc(-c2sc(NC(=O)N3CCN4C(=O)COCC4C3)nc2-c2cccc(C#N)c2)cc(C)n1 (stereo not shown)
[4] Cc1cc(-c2sc(NC(=O)N3CC(N(C)C)C3)nc2-c2cccc(C#N)c2)cc(C)n1
[5] Cc1cc(-c2sc(NC(=O)N3CCNC4(CC4)C3)nc2-c2cccc(C#N)c2)cc(C)n1
[in] Arrange items by their pKi values in increasing order. Write the labels out in the order the request specifies.
[out] 4, 3, 5, 2, 1
(4: 7.54, 3: 8.00, 5: 8.36, 2: 8.57, 1: 8.96)

----------
- measurement.target: human Adenosine A1 receptor (Homo sapiens (Human), UniProt P30542)
- protocol.summary: Adenosine receptor TR-FRET binding assay (A1)
- test.conditions: inhibition of binding of 100 nM CA200645, CHO cell membranes
pKi: −log10 of the molar value.
metric: pKi

Below are worked cases with known answers.
1. Cc1cc(-c2sc(NC(=O)N3CCC(C#N)(CO)CC3)nc2-c2cccc(C#N)c2)cc(CO)n1 = 7.17
2. Cc1cc(-c2sc(NC(=O)N3C[C@@H]4NCCO[C@@H]4C3)nc2-c2cccc(C#N)c2)cc(C(F)F)n1 (racemic) = 6.74

[I] Cc1cc(-c2sc(NC(=O)N3CCC(C)(C#N)CC3)nc2-c2cccc(C#N)c2)cc(C2COC2)n1
[II] COC(C)c1cc(-c2sc(NC(=O)N3CC4(COC4)C3)nc2-c2cccc(C#N)c2)cc(C)n1 (stereo not shown)
[in] Please tell me which of the two, I or II , has the higher reported pKi value. Refer to your chosen item by its label in the answer.
[out] II
(II: 8.15, I: 7.74)
